Target: eIF4A1 Phe163Gly (Homo sapiens, UniProt P60842 1-406, F163G)
Sequence (P60842 whole entry F163G): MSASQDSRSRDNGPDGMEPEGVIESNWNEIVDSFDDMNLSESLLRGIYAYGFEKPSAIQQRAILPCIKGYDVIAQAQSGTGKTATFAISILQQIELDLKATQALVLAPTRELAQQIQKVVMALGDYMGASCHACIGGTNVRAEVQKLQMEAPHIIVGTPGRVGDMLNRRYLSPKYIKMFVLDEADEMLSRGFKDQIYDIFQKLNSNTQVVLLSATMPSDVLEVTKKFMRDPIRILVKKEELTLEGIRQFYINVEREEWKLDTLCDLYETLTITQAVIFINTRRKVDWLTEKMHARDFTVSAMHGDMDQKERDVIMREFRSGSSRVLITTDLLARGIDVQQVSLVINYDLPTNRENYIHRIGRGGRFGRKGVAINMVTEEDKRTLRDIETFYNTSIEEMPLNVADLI
Experiment: fluorescence polarization; 1 mM AMP-PNP, DMSO; 20 mM HEPES-NaOH pH 7.5, 150 mM NaCl, 1 mM MgCl2, 1 mM DTT, 5% glycerol, 1% DMSO, 10 nM FAM-RNA, 0-25 uM protein (source data up to 50), 1 mM AMP-PNP or 1 mM ADP + 1 mM Na2HPO4, room temperature 30 min; Hill fit, n = 3
Settings: protein: recombinant; tags: His; single strand
READOUT: pKd
pKd field: float, defined as -log10 of concentration (mol/L).

Bench note: what pKd did AGAGAGAGAGAGAGAGAGAG (ssRNA) [[AG]10 polypurine RNA] show?
4.68
